test system: 786-0 renal; test: NCI tumour cell line growth inhibition, 48 h
endpoint label: TGI

See these solved cases before continuing.
# compound, TGI
rows = [
    ("CC(=O)N(C)c1ccc(Nc2ccnc3ccc4nn(C)nc4c23)cc1", "> 100 µM"),
    ("COc1cc2cc(Oc3ccc(NC(=O)c4cccc(C(F)(F)F)c4)cc3)c(C)nc2cc1OC", "> 100 µM"),
    ("C=C(C)[C@H]1CC(=O)/C(C)=C\\CC/C(C)=C/CC[C@@]2(C)O[C@@H]2C1", "> 100 µM"),
    ("CCN(CC)c1ccc(NC(=S)NN(C)C)cc1", "> 10 µM"),
]

Go through the list and state TGI for each entry.
1. COc1ccc(OC)c(-c2cc(-c3ccccc3)nn2-c2ccc(S(=O)(=O)NC(C)=O)cc2)c1
2. CS(=O)(=O)c1ccc(Cl)c([N+](=O)[O-])c1
3. CNC(=S)NNc1ncnc2c1c(-c1ccc(Cl)cc1)cn2-c1ccc(C)cc1
4. CC(C)=CCC12Cc3ccc(O)cc3C(C(C)CN1)C2C (centres undefined)
5. Nc1c(S(N)(=O)=O)cc(S(N)(=O)=O)cc1S(N)(=O)=O
6. COc1ccc(C(=O)N2c3ccccc3Sc3ccccc32)c(F)c1
7. COc1ccc(-n2nnc3c(sc4ccccc43)c2=O)cc1

["23.4 µM", "36.8 µM", "24.2 µM", "> 100 µM", "> 100 µM", "> 100 µM", "> 100 µM"]

// for each compound below, give its TGI
1. Cc1ccc(C(=O)Cc2nc3c([nH]c2=O)c(C)nn3-c2ccccc2)c(C)c1
2. C=C(C)C1CC2C(C)=C(OC(C)=O)C1n1c(=O)c3cc4ccccc4cc3c(=O)n12 (centres undefined)
3. CCOC(=O)/C=C(/C=C\COC1CCCCO1)c1ccccc1 (centres undefined)
4. COC(=O)C1=C(OC(=O)c2ccc(Cl)cc2)C(C(=O)OC)[C@@]2(O)[C@@H](C(=O)OC)C(c3ccccc3C(F)(F)F)C[C@@H]1[C@@H]2C(=O)OC (some centres undefined)

1: > 10 µM; 2: > 100 µM; 3: 62.7 µM; 4: > 100 µM

Required: TGI, one value per compound below.
1. CC(O)CNC1=CC(=O)C(=O)c2ccccc21 (centres undefined)
2. COc1ccc(C2Oc3c(OC)cc(CCCO)cc3C2CO)cc1OC (centres undefined)

32.2 µM
> 100 µM

List the reported TGI of each compound below.
1. CC12CC3(C)CC(C)(C1)CC(N=[N+]=[N-])(C2)C3
2. CC(C)N(C(C)C)[PH+]1O[PH+](N(C(C)C)C(C)C)O[PH+](N(C(C)C)C(C)C)O[PH+](N(C(C)C)C(C)C)O[PH+](N(C(C)C)C(C)C)O1.[C-]#[O+].[C-]#[O+].[C-]#[O+].[C-]#[O+].[C-]#[O+].[C-]#[O+].[C-]#[O+].[Cr].[Cr] (centres undefined)

1: > 100 µM; 2: > 100 µM
